# solubility listing for each entry below
# test.name: physchem
# condition.info: water

| compound | solubility |
| --- | --- |
| Cc1ccc(Sc2ccccc2N2CCNCC2)c(C)c1.O=S(=O)(O)O [sulphate] | ~100 µg/mL |
| Cc1ccc(Sc2ccccc2N2CCNCC2)c(C)c1.O=C(O)/C=C/C(=O)O [fumarate] | 400 µg/mL |
| Cc1ccc(Sc2ccccc2N2CCNCC2)c(C)c1.Cl [hydrochloride monohydrate] | ~2000 µg/mL |
| Cc1ccc(Sc2ccccc2N2CCNCC2)c(C)c1.O=C(O)C(O)C(O)C(=O)O [L-(+)-tartrate] | ~400 µg/mL |
| Cc1ccc(Sc2ccccc2N2CCNCC2)c(C)c1.O=P(O)(O)O [phosphate] | ~1000 µg/mL |
| Cc1ccc(Sc2ccccc2N2CCNCC2)c(C)c1.O=C(O)/C=C\C(=O)O [maleate] | ~1000 µg/mL |
| Cc1ccc(Sc2ccccc2N2CCNCC2)c(C)c1.O=[N+]([O-])O [nitrate] | ~800 µg/mL |
| CS(=O)(=O)O.Cc1ccc(Sc2ccccc2N2CCNCC2)c(C)c1 [mesylate] | > 45000 µg/mL |
